test system: HEK293T; assay: plasma membrane surface immunostaining intensity (anti-HA, deep receptor scanning) (arbitrary fluorescence units); higher = higher plasma membrane expression; conditions: GPCR class: A
Each entry below carries its reported plasma membrane surface immunostaining intensity.

# seq_string, observed
data = [
    ("MFSPWKISMFLSVREDSVPTTASFSADMLNVTLQGPTLNGTFAQSKCPQVEWLGWLNTIQPPFLWVLFVLATLENIFVLSVFCLHKSSCTVAEIYLGNLAAADLILACGLPFWAITISNNFDWLFGETLCRVVNAIISMNLYSSICFLMLVSIDRYLALVKTMSMGRMRGVRWAKLYSLVIWGCTLLLSSPMLVFRTMKEYSDEGHNVTACVISYPSLIWEVFTNMLLNVVGFLLPLSVITFCTMQIMQVLRNNEMQKFKEIQTERRATVLVLVVLLLFIICWLPFQISTFLDTLHRLGILSSCQDERIIDVITQIASFMAYSNSCLNPLVYVIVGKRFRKKSWEVYQGVCQKGGCRSEPIQMENSMGTLRTSISVERQIHKLQDWAGSRQ [BDKRB2]", 664),
]

Moving on to another sequence below.
Data request: # query: plasma membrane surface immunostaining intensity | item MALTPESPSSFPGLAATGSSVPEPPGGPNATLNSSWASPTEPSSLEDLVATGTIGTLLSAMGVVGVVGNAYTLVVTCRSLRAVASMYVYVVNLALADLLYLLSIPFIVATYVTKEWHFGDVGCRVLFGLDFLTMHASIFTLTVMSSERYAAVLRPLDTVQRPKGYRKLLALGTWLLALLLTLPVMLAMRLVRRGPKSLCLPAWGPRAHRAYLTLLFATSIAGPGLLIGLLYARLARAYRRSQRASFKRARRPGARALRLVLGIVLLFWACFLPFWLWQLLAQYHQAPLAPRTARIVNYLTTCLTYGNSCANPFLYTLLTRNYRDHLRGRVRGPGSGGGRGPVPSLQPRARFQRCSGRSLSSCSPQPTDSLVLAPAAPARPAPEGPRAPA [UTS2R] | system: HEK293T
Data returned: 2430

###

plasma membrane surface immunostaining intensity reference
system: HEK293T; assay: plasma membrane surface immunostaining intensity (anti-HA, deep receptor scanning) (arbitrary fluorescence units); higher = higher plasma membrane expression; conditions: GPCR class: A (Olfactory)
Field format: numeric only.

# seq_string, observed
rows = [
    ("MESNQTWITEVILLGFQVDPALELFLFGFFLLFYSLTLMGNGIILGLIYLDSRLHTPMYVFLSHLAIVDMSYASSTVPKMLANLVMHKKVISFAPCILQTFLYLAFAITECLILVMMCYDRYVAICHPLQYTLIMNWRVCTVLASTCWIFSFLLALVHITLILRLPFCGPQKINHFFCQIMSVFKLACADTRLNQVVLFAGSAFILVGPLCLVLVSYLHILVAILRIQSGEGRRKAFSTCSSHLCVVGLFFGSAIVMYMAPKSSHSQERRKILSLFYSLFNPILNPLIYSLRNAEVKGALKRVLWKQRSM [OR2A12]", 126),
]

Data request: Given MDGTNGSTQTHFILLGFSDRPHLERILFVVILIAYLLTLVGNTTIILVSRLDPHLHTPMYFFLAHLSFLDLSFTTSSIPQLLYNLNGCDKTISYMGCAIQLFLFLGLGGVECLLLAVMAYDRCVAICKPLHYMVIMNPRLCRGLVSVTWGCGVANSLAMSPVTLRLPRCGHHEVDHFLREMPALIRMACVSTVAIEGTVFVLAVGVVLSPLVFILLSYSYIVRAVLQIRSASGRQKAFGTCGSHLTVVSLFYGNIIYMYMQPGASSSQDQGMFLMLFYNIVTPLLNPLIYTLRNREVKGALGRLLLGKRELGKE [OR2W3] , state its recorded plasma membrane surface immunostaining intensity.
Data returned: 129
